# assay_system: Adrenergic β2 (H292 cells) (Homo sapiens)
# Construct: endogenous in cells; host or cells: H292 cells
# Sequence (P07550 whole entry): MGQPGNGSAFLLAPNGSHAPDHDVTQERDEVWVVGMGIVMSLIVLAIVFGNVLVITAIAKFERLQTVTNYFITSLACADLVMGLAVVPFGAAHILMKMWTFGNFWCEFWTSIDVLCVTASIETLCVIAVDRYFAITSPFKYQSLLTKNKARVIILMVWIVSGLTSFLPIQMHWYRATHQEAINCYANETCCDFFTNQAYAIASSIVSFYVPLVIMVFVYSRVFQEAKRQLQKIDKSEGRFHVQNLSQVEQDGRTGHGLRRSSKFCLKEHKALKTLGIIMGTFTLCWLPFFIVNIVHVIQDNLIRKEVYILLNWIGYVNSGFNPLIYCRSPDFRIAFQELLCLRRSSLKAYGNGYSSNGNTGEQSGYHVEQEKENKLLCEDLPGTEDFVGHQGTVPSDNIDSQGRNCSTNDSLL
# experimental_details: Adrenergic β2 Mediated cAMP Production, single concentration 1 μM
# Format: cell-based
# study_conditions: NCI-H292, 1 μM compound, percentage of the maximum response generated by 1E-07M formoterol, read-out: β2 (% effect at 1 μM)
Items are presented alongside their recorded activation at 1 µM.
Reply with just the number (in %).

Recorded activation at 1 µM, per entry:
| structure_smiles_string | recorded_result |
| --- | --- |
| O=C(c1cccc2[nH]ccc12)N1CCOC2(CCN(Cc3cc(F)cc(CCNC[C@H](O)c4ccc(O)c5[nH]c(=O)sc45)c3)CC2)C1 | 89 |
| O=C(c1cc2ccccc2[nH]1)N1CCOC2(CCN(Cc3cc(F)cc(CCNC[C@H](O)c4ccc(O)c5[nH]c(=O)sc45)c3)CC2)C1 | 101 |
| O=C(c1ccc(-c2cc[nH]n2)cc1)N1CCOC2(CCN(Cc3cc(F)cc(CCNC[C@H](O)c4ccc(O)c5[nH]c(=O)sc45)c3)CC2)C1 | 104 |
| Cc1nc(CC(=O)N2CCOC3(CCN(CCOc4ccc(CNC[C@H](O)c5ccc(O)c6[nH]c(=O)sc56)cc4)CC3)C2)cs1 | 68 |
| O=C(c1cccc2cc[nH]c12)N1CCOC2(CCN(Cc3cc(F)cc(CCNC[C@H](O)c4ccc(O)c5[nH]c(=O)sc45)c3)CC2)C1 | 105 |

Shifting focus to the compound that follows.
[in] With Adrenergic β2 (H292 cells) (Homo sapiens) as the test system, provide measured activation at 1 µM for this compound: `Cc1cccc2nc(C(=O)N3CCOC4(CCN(Cc5cc(F)cc(CCNC[C@H](O)c6ccc(O)c7[nH]c(=O)sc67)c5)CC4)C3)cn12`
[out] 110

====

# assay_system: Adrenergic β2 (H292 cells) (Homo sapiens)
# Construct: endogenous in cells; host or cells: H292 cells
# experimental_details: Assay for Adrenergic β2 Mediated cAMP Production (concentration response, AlphaScreen cAMP detection)
# Assay type: cell-based
# study_conditions: fraction relative to the maximum activity determined for formoterol
Structures can show the parent of a compound that is named as a salt.
parameter_measured: β2 Intrinsic activity
A bare number is all that is needed in reply.

| molecule | recorded_result |
| --- | --- |
| Cc1nc(C(=O)N2CC(C)(C)OC3(CCN(Cc4cccc(CCNC[C@H](O)c5ccc(O)c6[nH]c(=O)sc56)c4)CC3)C2)cs1 [Example 271, ditrifluoroacetate] | 1 |
| Cc1ccc(C(=O)N2CCOC3(CCN(Cc4cc(F)cc(CCNC[C@H](O)c5ccc(O)c6[nH]c(=O)sc56)c4)CC3)C2)s1 | 1 |
| Cc1nc(C(=O)N2CCOC3(CCN(CCOc4ccc(CCNC[C@H](O)c5ccc(O)c6[nH]c(=O)sc56)cc4)CC3)C2)cs1 [Example 3, dihydrochloride] | 1.0 |

[in] With Adrenergic β2 (H292 cells) (Homo sapiens) as the test system, provide measured β2 Intrinsic activity for this molecule: `O=C(c1ccc2cccnc2c1)N1CCOC2(CCN(Cc3cc(F)cc(CCNC[C@H](O)c4ccc(O)c5[nH]c(=O)sc45)c3)CC2)C1`
[out] 0.8

[in] With Adrenergic β2 (H292 cells) (Homo sapiens) as the test system, provide measured β2 Intrinsic activity for this molecule: Cc1cc(C(=O)N2CCOC3(CCN(CCCCCCCCCNC[C@H](O)c4ccc(O)c5[nH]c(=O)sc45)CC3)C2)cs1 [Example 105, formate]
[out] 0.8

[in] With Adrenergic β2 (H292 cells) (Homo sapiens) as the test system, provide measured β2 Intrinsic activity for this molecule: `Cc1csc(C(=O)N2CCOC3(CCN(CCCCCCCCCNC[C@H](O)c4ccc(O)c5[nH]c(=O)sc45)CC3)C2)c1`
[out] 0.8

[in] With Adrenergic β2 (H292 cells) (Homo sapiens) as the test system, provide measured β2 Intrinsic activity for this molecule: CC(C)c1cc(C(=O)N2CCOC3(CCN(Cc4cccc(CCNC[C@H](O)c5ccc(O)c6[nH]c(=O)sc56)c4F)CC3)C2)cs1 [Example 70, ditrifluoroacetate]
[out] 0.8

[in] With Adrenergic β2 (H292 cells) (Homo sapiens) as the test system, provide measured β2 Intrinsic activity for this molecule: CC(C)c1ncc(C(=O)N2CCOC3(CCN(Cc4cc(F)cc(CCNC[C@H](O)c5ccc(O)c6[nH]c(=O)sc56)c4)CC3)C2)s1 [Example 55, ditrifluoroacetate]
[out] 1

[in] With Adrenergic β2 (H292 cells) (Homo sapiens) as the test system, provide measured β2 Intrinsic activity for this molecule: CC(C)c1nc(C(=O)N2CCOC3(CCN(Cc4cc(F)cc(CCNC[C@H](O)c5ccc(O)c6[nH]c(=O)sc56)c4)CC3)C2)cs1 [Example 42, ditrifluoroacetate]
[out] 1

[in] With Adrenergic β2 (H292 cells) (Homo sapiens) as the test system, provide measured β2 Intrinsic activity for this molecule: Cc1nc(C(=O)N2CCOC3(CCN(CCOc4cccc(CCNC[C@H](O)c5ccc(O)c6[nH]c(=O)sc56)c4)CC3)C2)cs1 [Example 24, ditrifluoroacetate]
[out] 1

[in] With Adrenergic β2 (H292 cells) (Homo sapiens) as the test system, provide measured β2 Intrinsic activity for this molecule: Cc1nc(C(=O)N2CCOC3(CCN(Cc4ccc(CCNC[C@H](O)c5ccc(O)c6[nH]c(=O)sc56)cc4)CC3)C2)cs1 [Example 16, ditrifluoroacetate]
[out] 0.9

[in] With Adrenergic β2 (H292 cells) (Homo sapiens) as the test system, provide measured β2 Intrinsic activity for this molecule: Cc1nc(C(=O)N2CCOC3(CCN(Cc4cccc(CCNC[C@H](O)c5ccc(O)c6[nH]c(=O)ccc56)c4)CC3)C2)cs1 [Example 7, ditrifluoroacetate]
[out] 0.8
